Every entry's value here was drawn from patent US5994340A.

# target of assay: cephalosporinase from P. aeruginosa (Pseudomonas aeruginosa, UniProt P24735)
# Sequence (P24735 27-397): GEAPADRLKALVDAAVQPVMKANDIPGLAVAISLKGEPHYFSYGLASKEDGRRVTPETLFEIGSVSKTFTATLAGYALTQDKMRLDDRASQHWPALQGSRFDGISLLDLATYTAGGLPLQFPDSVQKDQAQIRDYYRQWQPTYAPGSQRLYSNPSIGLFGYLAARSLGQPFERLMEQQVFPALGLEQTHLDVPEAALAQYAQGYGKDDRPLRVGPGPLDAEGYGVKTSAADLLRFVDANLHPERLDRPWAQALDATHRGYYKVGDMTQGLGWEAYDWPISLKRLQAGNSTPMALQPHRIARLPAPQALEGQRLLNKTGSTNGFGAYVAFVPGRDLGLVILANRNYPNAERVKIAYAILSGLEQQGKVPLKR
# assay summary: β-Lactamase inhibitory activity, spectrophotometric rate assay at 490 nm with nitrocefin as substrate

>  <molecule>
C[C@H]1[C@H](NC(=O)/C(=N/OCC(N)CN)c2cccs2)C(=O)N1S(=O)(=O)O (some centres unmarked) [Compound 4]

>  <IC50>
65 nM

$$$$
>  <molecule>
C[C@H]1[C@H](NC(=O)/C(=N/OC[C@H](N)CCN)c2cccs2)C(=O)N1S(=O)(=O)O [Compound 6]

>  <IC50>
100 nM

$$$$
>  <molecule>
C[C@H]1[C@H](NC(=O)/C(=N/OCCN)c2csc(N)n2)C(=O)N1S(=O)(=O)O [Reference Compound II]

>  <IC50>
800 nM

$$$$
>  <molecule>
C[C@H]1[C@H](NC(=O)/C(=N/OC(CN)CNC(=N)N)c2cccs2)C(=O)N1S(=O)(=O)O (some centres unmarked) [Compound 12]

>  <IC50>
1090 nM

$$$$
>  <molecule>
C[C@H]1[C@H](NC(=O)/C(=N/OC(CN)CO)c2cccs2)C(=O)N1S(=O)(=O)O (some centres unmarked) [Compound 8]

>  <IC50>
300 nM

$$$$
>  <molecule>
C[C@H]1[C@H](NC(=O)/C(=N/OC[C@@H](N)CCN)c2cccs2)C(=O)N1S(=O)(=O)O [Compound 5]

>  <IC50>
100 nM

$$$$
>  <molecule>
C[C@H]1[C@H](NC(=O)/C(=N/OCCN)c2cccs2)C(=O)N1S(=O)(=O)O [Compound 1]

>  <IC50>
20 nM

$$$$
>  <molecule>
C[C@H]1[C@H](NC(=O)/C(=N/OCCNCCN)c2cccs2)C(=O)N1S(=O)(=O)O [Compound 7]

>  <IC50>
80 nM

$$$$

###

# target of assay: cephalosporinase from P. aeruginosa (Pseudomonas aeruginosa)
# assay summary: β-Lactamase inhibitory activity, spectrophotometric rate assay at 490 nm with nitrocefin as substrate
Label criterion met when IC50 is strictly below 100 nM; at or above that, label criterion not met.

>  <compound>
CC(N)CO/N=C(/C(=O)N[C@@H]1C(=O)N(S(=O)(=O)O)[C@H]1C)c1cccs1 (stereo partly drawn)

>  <qualitative label>
criterion met

$$$$
>  <compound>
C[C@H]1[C@H](NC(=O)/C(=N/OCCCN)c2cccs2)C(=O)N1S(=O)(=O)O

>  <qualitative label>
criterion met

$$$$
>  <compound>
C[C@H]1[C@H](NC(=O)/C(=N/OCC(N)CO)c2cccs2)C(=O)N1S(=O)(=O)O (stereo partly drawn)

>  <qualitative label>
criterion met

$$$$
>  <compound>
CC(CN)O/N=C(/C(=O)N[C@@H]1C(=O)N(S(=O)(=O)O)[C@H]1C)c1cccs1 (stereo partly drawn)

>  <qualitative label>
criterion not met

$$$$
>  <compound>
C[C@H]1[C@H](NC(=O)/C(=N\OC(C)(C)C(=O)O)c2csc(N)n2)C(=O)N1S(=O)(=O)O [Reference Compound I, Aztreonam]

>  <qualitative label>
criterion not met

$$$$
>  <compound>
C[C@H]1[C@H](NC(=O)/C(=N/OC(CN)CN)c2cccs2)C(=O)N1S(=O)(=O)O

>  <qualitative label>
criterion not met

$$$$
